Test system: P. falciparum NF54 (CQ sensitive)
Test: In vitro P. falciparum asexual blood stage, [3H]-hypoxanthine, NF54
Format: cell-based, Plasmodium falciparum
Conditions: Plasmodium falciparum, NF54, Erythrocyte, read-out: Antimalarial activity (IC50) P. falciparum NF54 (CQ sensitive)
Result Type: pIC50
Bear in mind: pIC50 is minus log10 of a mol/L concentration; give just that figure.

Prompt line: Entry `CN1CCN(CCNc2c3c(nc4cc(Cl)ccc24)CCCC3)CC1` : reported pIC50 = ?
Response line: 6.49

====

System: U2OS cells
Assay: Cell viability (IC50) screen, CellTiter Glo, U2OS
Format: cell-based
Settings: U2OS cell viability, CellTiter Glo, 48 hours
Result Type: pIC50
Field pIC50 (float): negative decimal logarithm of the concentration in molar.

Prompt line: # pIC50 lookup, item `CN1CCN(CCNc2c3c(nc4cc(Cl)ccc24)CCCC3)CC1`
Response line: 4.57
